# System: NCI-H2342
# TEST SUMMARY: relative viability (nuclei count vs DMSO), 5 days (fraction); higher = more cells survive
# REPORTED CONDITIONS: first compound 0.4 µM
# Lookup of reported relative viability keyed by entry
Please give only the number in your answer, with no unit.

Exam item: Fill in relative viability for Cc1sc2c(c1C)C(c1ccc(Cl)cc1)=N[C@@H](CC(=O)OC(C)(C)C)c1nnc(C)n1-2 [JQ1] + Cc1cc(Nc2cc(N3CCN(C)CC3)nc(Sc3ccc(NC(=O)C4CC4)cc3)n2)n[nH]1 [Tozasertib] (partner 0.1 µM) tested with NCI-H2342.
Marked response: 0.46

Exam item: Fill in relative viability for Cc1sc2c(c1C)C(c1ccc(Cl)cc1)=N[C@@H](CC(=O)OC(C)(C)C)c1nnc(C)n1-2 [JQ1] + Nc1ncn([C@H]2C[C@H](O)[C@@H](CO)O2)c(=O)n1 [Decitabine] (partner 2 µM) tested with NCI-H2342.
Marked response: 0.737

Exam item: Fill in relative viability for Cc1sc2c(c1C)C(c1ccc(Cl)cc1)=N[C@@H](CC(=O)OC(C)(C)C)c1nnc(C)n1-2 [JQ1] + COc1cc2c(Oc3ccc(NC(=O)C4(C(=O)Nc5ccc(F)cc5)CC4)cc3F)ccnc2cc1OCCCN1CCOCC1 [Foretinib] (partner 0.25 µM) tested with NCI-H2342.
Marked response: 1.08

Exam item: Fill in relative viability for Cc1sc2c(c1C)C(c1ccc(Cl)cc1)=N[C@@H](CC(=O)OC(C)(C)C)c1nnc(C)n1-2 [JQ1] + CC(=O)c1c(C)c2cnc(Nc3ccc(N4CCNCC4)cn3)nc2n(C2CCCC2)c1=O [Palbociclib] (partner 0.5 µM) tested with NCI-H2342.
Marked response: 0.535

----------
# Test system: NCI-H1915
# TEST SUMMARY: relative viability (nuclei count vs DMSO), 5 days (fraction); higher = more cells survive
# REPORTED CONDITIONS: first compound 8 µM
READOUT KIND: relative viability
Please give only the number in your answer, with no unit.

Examples from the recorded data:
O=c1[nH]c2ccccc2n1C1CCN(CCCC(c2ccc(F)cc2)c2ccc(F)cc2)CC1 [Pimozide] + O=C(CCCCCCC(=O)Nc1ccccc1)NO [Vorinostat] (partner 1 µM) :: 0.487
O=c1[nH]c2ccccc2n1C1CCN(CCCC(c2ccc(F)cc2)c2ccc(F)cc2)CC1 [Pimozide] + N=C(N)NC(=N)NCCc1ccccc1 [Phenformin] (partner 250 µM) :: 0.367
O=c1[nH]c2ccccc2n1C1CCN(CCCC(c2ccc(F)cc2)c2ccc(F)cc2)CC1 [Pimozide] + Cc1nc(Nc2ncc(C(=O)Nc3c(C)cccc3Cl)s2)cc(N2CCN(CCO)CC2)n1 [Dasatinib] (partner 0.075 µM) :: 0.303
O=c1[nH]c2ccccc2n1C1CCN(CCCC(c2ccc(F)cc2)c2ccc(F)cc2)CC1 [Pimozide] + COc1cc2c(Oc3ccc(NC(=O)C4(C(=O)Nc5ccc(F)cc5)CC4)cc3F)ccnc2cc1OCCCN1CCOCC1 [Foretinib] (partner 0.25 µM) :: 1.05

From here, focus on the item given below.
Exam item: Answer with reported relative viability of O=c1[nH]c2ccccc2n1C1CCN(CCCC(c2ccc(F)cc2)c2ccc(F)cc2)CC1 [Pimozide] + COc1cccc2cc(-c3nc([C@H]4CC[C@H](C(=O)O)CC4)n4ncnc(N)c34)[nH]c12 [OSI-027] (partner 0.5 µM)
Marked response: 0.478
